pKi, D3 receptor (Homo sapiens (Human), UniProt P35462), per-entry values.
Please note pKi is a logarithmic value: minus log10 of concentration in mol/L. Answer with that number alone.

Solved cases below.
                                   compound  parameter  readout_number
0  CC(C)(O)CC(=O)N[C@H]1CC[C@H](CCN2CCN(c3cccc4c3OCO4)CC2)CC1 [Example 27]        pKi            8.81
1  CC(C)[C@H](O)C(=O)N[C@H]1CC[C@H](CCN2CCN(c3cccc4c3OCO4)CC2)CC1 [Example 40]        pKi            7.83

Lookup: Fill in: pKi of [2H]C1([2H])Oc2cccc(N3CCN(CC[C@H]4CC[C@H](NC(=O)C(C)C)CC4)CC3)c2O1 [Example 80] is ___
Found: 8.65

Lookup: Fill in: pKi of O=C(CC1COC1)N[C@H]1CC[C@H](CCN2CCN(c3cccc4c3OCO4)CC2)CC1 [Example 22] is ___
Found: 8.69

Lookup: Fill in: pKi of Cc1cc(CC(=O)N[C@H]2CC[C@H](CCN3CCN(c4cccc5c4OCO5)CC3)CC2)on1 [Example 13] is ___
Found: 8.87

Lookup: Fill in: pKi of O=C(N[C@H]1CC[C@H](CCN2CCN(c3cccc4c3OCO4)CC2)CC1)C1CCS(=O)(=O)C1 (some centres unmarked) [Example 52] is ___
Found: 8.45

Lookup: Fill in: pKi of O=C(N[C@H]1CC[C@H](CCN2CCN(c3cccc4c3OCO4)CC2)CC1)C1CC1(F)F (some centres unmarked) [Example 20] is ___
Found: 8.59

Lookup: Fill in: pKi of CC1(C(=O)N[C@H]2CC[C@H](CCN3CCN(c4cccc5c4OCO5)CC3)CC2)COC1 [Example 58] is ___
Found: 8.17

###

# TEST_TARGET: D2 receptor (Homo sapiens (Human), UniProt P14416)
# Sequence (P14416 whole entry): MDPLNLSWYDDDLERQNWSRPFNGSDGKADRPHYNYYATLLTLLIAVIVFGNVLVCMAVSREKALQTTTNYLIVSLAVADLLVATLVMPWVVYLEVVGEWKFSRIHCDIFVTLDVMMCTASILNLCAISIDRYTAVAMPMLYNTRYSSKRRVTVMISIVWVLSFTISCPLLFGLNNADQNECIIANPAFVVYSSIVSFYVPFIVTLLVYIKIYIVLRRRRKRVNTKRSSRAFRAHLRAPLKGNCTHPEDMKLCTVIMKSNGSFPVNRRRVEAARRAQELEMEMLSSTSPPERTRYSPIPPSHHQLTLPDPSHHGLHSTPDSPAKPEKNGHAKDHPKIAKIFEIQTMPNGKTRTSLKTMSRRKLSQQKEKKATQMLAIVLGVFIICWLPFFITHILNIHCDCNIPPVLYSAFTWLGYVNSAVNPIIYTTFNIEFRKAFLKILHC
# EXPERIMENT_NOTES: Radioligand binding ([3H]-spiperone) to cloned D2 receptor expressed in HEK-293 EBNA cells
# ASSAY_CONTEXT: HEK293 EBNA membranes, 0.7 nM [3H]-spiperone
Reported pKi values are given for each entry in this list.
Please note pKi is a logarithmic value: minus log10 of concentration in mol/L. Answer with that number alone.

                                   molecule  parameter  readout_number
0  CC(=O)N[C@H]1CC[C@H](CCN2CCN(c3cccc4c3OCO4)CC2)CC1        pKi            7.17

Lookup: Fill in: pKi of O=C(C[C@H]1CCCCO1)N[C@H]1CC[C@H](CCN2CCN(c3cccc4c3OCO4)CC2)CC1 (single isomer, unassigned) is ___
Found: 6.51

Lookup: Fill in: pKi of "Cc1cc(CC(=O)N[C@H]2CC[C@H](CCN3CCN(c4cccc5c4OCO5)CC3)CC2)on1" is ___
Found: 6.50

Lookup: Fill in: pKi of "CO[C@@H](C(=O)N[C@H]1CC[C@H](CCN2CCN(c3cccc4c3OCO4)CC2)CC1)C(C)C" is ___
Found: 7.05

###

# TEST_TARGET: D2 receptor (Homo sapiens (Human), UniProt P14416)
# EXPERIMENT_NOTES: Radioligand binding ([3H]-spiperone) to cloned D2 receptor expressed in HEK-293 EBNA cells
# ASSAY_CONTEXT: HEK293 EBNA membranes, 0.7 nM [3H]-spiperone
PARAMETER: Ki (nM)
Dear colleague, please return just the value in nM, with no unit written.

Solved cases below.
>>> df
                               entry_smiles  parameter  readout_number
0  O=C(C[C@H]1C[C@H](CO)C1)N[C@H]1CC[C@H](CCN2CCN(c3cccc4c3OCO4)CC2)CC1         Ki             117
1  O=C(CC1CCOCC1)N[C@H]1CC[C@H](CCN2CCN(c3cccc4c3OCO4)CC2)CC1         Ki             139
2  N#Cc1ccc(C(=O)N[C@H]2CC[C@H](CCN3CCN(c4cccc5c4OCO5)CC3)CC2)cc1         Ki             101

Please look at the following molecule next.
Lookup: Missing value: Ki, D2 receptor (Homo sapiens (Human), UniProt P14416), entry "O=C(N[C@H]1CC[C@H](CCN2CCN(c3cccc4c3OCO4)CC2)CC1)C1(O)CCCCC1" . Fill in?
Found: 175

###

Ki, UniProtKB P35462, per-entry values.
Dear colleague, please return just the value in nM, with no unit written.

Solved cases below.
                                   compound       test_target  result_units  readout_number
0  CN1CCC(C(=O)N[C@H]2CC[C@H](CCN3CCN(c4cccc5c4OCO5)CC3)CC2)CC1 [Example 57]  UniProtKB P35462            nM            24.9
1  O=C(N[C@H]1CC[C@H](CCN2CCN(c3cccc4c3OCO4)CC2)CC1)C1CCOCC1 [Example 43]  UniProtKB P35462            nM            4.48
2  O=C(Cc1ccc2c(c1)OCO2)N[C@H]1CC[C@H](CCN2CCN(c3cccc4c3OCO4)CC2)CC1 [Example 51]  UniProtKB P35462            nM            2.11
3  COC1(C(=O)N[C@H]2CC[C@H](CCN3CCN(c4cccc5c4OCO5)CC3)CC2)CC1 [Example 62]  UniProtKB P35462            nM            14.3
4  O=C(N[C@H]1CC[C@H](CCN2CCN(c3cccc4c3OCO4)CC2)CC1)c1ccccc1 [Example 11]  UniProtKB P35462            nM            9.99

Lookup: Fill in: Ki of COC1(C(=O)N[C@H]2CC[C@H](CCN3CCN(c4cccc5c4OCO5)CC3)CC2)CCCCC1 [Example 41] is ___
Found: 12.5

Lookup: Fill in: Ki of O=S(=O)(N[C@H]1CC[C@H](CCN2CCN(c3cccc4c3OCO4)CC2)CC1)c1ccccc1 [Example 67] is ___
Found: 2.88

Lookup: Fill in: Ki of CC(C)[C@@H](O)C(=O)N[C@H]1CC[C@H](CCN2CCN(c3cccc4c3OCO4)CC2)CC1 [Example 39] is ___
Found: 5.77

###

Reported Ki values are given for each entry in this list.
# TEST_TARGET: D2 receptor (Homo sapiens (Human), UniProt P14416)
# EXPERIMENT_NOTES: Radioligand binding ([3H]-spiperone) to cloned D2 receptor expressed in HEK-293 EBNA cells
# ASSAY_CONTEXT: HEK293 EBNA membranes, 0.7 nM [3H]-spiperone
Dear colleague, please return just the value in nM, with no unit written.

Solved cases below.
In [3]: df
Out[3]:
                                   compound  result_units  readout_number
0  O=C(CC1(O)CCCCC1)N[C@H]1CC[C@H](CCN2CCN(c3cccc4c3OCO4)CC2)CC1            nM             160
1  O=C(N[C@H]1CC[C@H](CCN2CCN(c3cccc4c3OCO4)CC2)CC1)C1(O)CCCC1            nM             124
2  COC1(C(=O)N[C@H]2CC[C@H](CCN3CCN(c4cccc5c4OCO5)CC3)CC2)CCCCC1            nM             251

Lookup: Fill in: Ki of "O=C(N[C@H]1CC[C@H](CCN2CCN(c3cccc4c3OCO4)CC2)CC1)C(F)(F)F" is ___
Found: 113

Lookup: Fill in: Ki of "COCC(=O)N[C@H]1CC[C@H](CCN2CCN(c3cccc4c3OCO4)CC2)CC1" is ___
Found: 238

Lookup: Fill in: Ki of O=C(N[C@H]1CC[C@H](CCN2CCN(c3cccc4c3OCO4)CC2)CC1)C1CC1(F)F (some centres unmarked) is ___
Found: 144

Lookup: Fill in: Ki of "CC(C)CC(=O)N[C@H]1CC[C@H](CCN2CCN(c3cccc4c3OCO4)CC2)CC1" is ___
Found: 133

Lookup: Fill in: Ki of COC(C)C(=O)N[C@H]1CC[C@H](CCN2CCN(c3cccc4c3OCO4)CC2)CC1 (stereo in doubt) [Example 25] is ___
Found: 250

###

# TEST_TARGET: D2 receptor (Homo sapiens (Human), UniProt P14416)
# EXPERIMENT_NOTES: Radioligand binding ([3H]-spiperone) to cloned D2 receptor expressed in HEK-293 EBNA cells
# ASSAY_CONTEXT: HEK293 EBNA membranes, 0.7 nM [3H]-spiperone
PARAMETER: Ki (nM)
Dear colleague, please return just the value in nM, with no unit written.

Solved cases below.
>>> df
                                   compound  readout_number
0  O=C(N[C@H]1CC[C@H](CCN2CCN(c3cccc4c3OCO4)CC2)CC1)c1ccc(F)cc1 [Example 46]            82.5
1  O=C(N[C@H]1CC[C@H](CCN2CCN(c3cccc4c3OCO4)CC2)CC1)C1CCS(=O)(=O)C1 (stereo partly drawn) [Example 52]              59
2  CS(=O)(=O)N[C@H]1CC[C@H](CCN2CCN(c3cccc4c3OCO4)CC2)CC1 [Example 34]             145

Lookup: Missing value: Ki, D2 receptor (Homo sapiens (Human), UniProt P14416), entry O=C(N[C@H]1CC[C@H](CCN2CCN(c3cccc4c3OCO4)CC2)CC1)C1CCC1 [Example 54] . Fill in?
Found: 91.1

Lookup: Missing value: Ki, D2 receptor (Homo sapiens (Human), UniProt P14416), entry O=C(N[C@H]1CC[C@H](CCN2CCN(c3cccc4c3OCO4)CC2)CC1)C1COc2ccccc2C1 (stereo partly drawn) [Example 50] . Fill in?
Found: 572

Lookup: Missing value: Ki, D2 receptor (Homo sapiens (Human), UniProt P14416), entry O=C(Cc1ccc2c(c1)OCO2)N[C@H]1CC[C@H](CCN2CCN(c3cccc4c3OCO4)CC2)CC1 [Example 51] . Fill in?
Found: 681

Lookup: Missing value: Ki, D2 receptor (Homo sapiens (Human), UniProt P14416), entry O=C(N[C@H]1CC[C@H](CCN2CCN(c3cccc4c3OCO4)CC2)CC1)C1(O)CC1 [Example 29] . Fill in?
Found: 61.5

Lookup: Missing value: Ki, D2 receptor (Homo sapiens (Human), UniProt P14416), entry CN(C)S(=O)(=O)N[C@H]1CC[C@H](CCN2CCN(c3cccc4c3OCO4)CC2)CC1 [Example 76] . Fill in?
Found: 128

Lookup: Missing value: Ki, D2 receptor (Homo sapiens (Human), UniProt P14416), entry CO[C@H](C(=O)N[C@H]1CC[C@H](CCN2CCN(c3cccc4c3OCO4)CC2)CC1)C(C)C [Example 65] . Fill in?
Found: 112

Lookup: Missing value: Ki, D2 receptor (Homo sapiens (Human), UniProt P14416), entry [2H]C1([2H])Oc2cccc(N3CCN(CC[C@H]4CC[C@H](NC(=O)COC)CC4)CC3)c2O1 [Example 79] . Fill in?
Found: 146

Lookup: Missing value: Ki, D2 receptor (Homo sapiens (Human), UniProt P14416), entry CS(=O)(=O)CC(=O)N[C@H]1CC[C@H](CCN2CCN(c3cccc4c3OCO4)CC2)CC1 [Example 55] . Fill in?
Found: 95.4

Lookup: Missing value: Ki, D2 receptor (Homo sapiens (Human), UniProt P14416), entry COC(=O)N[C@H]1CC[C@H](CCN2CCN(c3cccc4c3OCO4)CC2)CC1 [Example 12] . Fill in?
Found: 68.5
